Origin of values: ChEMBL document CHEMBL2169811

Molecular target: Histone-lysine N-methyltransferase EHMT1 (Homo sapiens)
Sequence (Q9H9B1 whole entry): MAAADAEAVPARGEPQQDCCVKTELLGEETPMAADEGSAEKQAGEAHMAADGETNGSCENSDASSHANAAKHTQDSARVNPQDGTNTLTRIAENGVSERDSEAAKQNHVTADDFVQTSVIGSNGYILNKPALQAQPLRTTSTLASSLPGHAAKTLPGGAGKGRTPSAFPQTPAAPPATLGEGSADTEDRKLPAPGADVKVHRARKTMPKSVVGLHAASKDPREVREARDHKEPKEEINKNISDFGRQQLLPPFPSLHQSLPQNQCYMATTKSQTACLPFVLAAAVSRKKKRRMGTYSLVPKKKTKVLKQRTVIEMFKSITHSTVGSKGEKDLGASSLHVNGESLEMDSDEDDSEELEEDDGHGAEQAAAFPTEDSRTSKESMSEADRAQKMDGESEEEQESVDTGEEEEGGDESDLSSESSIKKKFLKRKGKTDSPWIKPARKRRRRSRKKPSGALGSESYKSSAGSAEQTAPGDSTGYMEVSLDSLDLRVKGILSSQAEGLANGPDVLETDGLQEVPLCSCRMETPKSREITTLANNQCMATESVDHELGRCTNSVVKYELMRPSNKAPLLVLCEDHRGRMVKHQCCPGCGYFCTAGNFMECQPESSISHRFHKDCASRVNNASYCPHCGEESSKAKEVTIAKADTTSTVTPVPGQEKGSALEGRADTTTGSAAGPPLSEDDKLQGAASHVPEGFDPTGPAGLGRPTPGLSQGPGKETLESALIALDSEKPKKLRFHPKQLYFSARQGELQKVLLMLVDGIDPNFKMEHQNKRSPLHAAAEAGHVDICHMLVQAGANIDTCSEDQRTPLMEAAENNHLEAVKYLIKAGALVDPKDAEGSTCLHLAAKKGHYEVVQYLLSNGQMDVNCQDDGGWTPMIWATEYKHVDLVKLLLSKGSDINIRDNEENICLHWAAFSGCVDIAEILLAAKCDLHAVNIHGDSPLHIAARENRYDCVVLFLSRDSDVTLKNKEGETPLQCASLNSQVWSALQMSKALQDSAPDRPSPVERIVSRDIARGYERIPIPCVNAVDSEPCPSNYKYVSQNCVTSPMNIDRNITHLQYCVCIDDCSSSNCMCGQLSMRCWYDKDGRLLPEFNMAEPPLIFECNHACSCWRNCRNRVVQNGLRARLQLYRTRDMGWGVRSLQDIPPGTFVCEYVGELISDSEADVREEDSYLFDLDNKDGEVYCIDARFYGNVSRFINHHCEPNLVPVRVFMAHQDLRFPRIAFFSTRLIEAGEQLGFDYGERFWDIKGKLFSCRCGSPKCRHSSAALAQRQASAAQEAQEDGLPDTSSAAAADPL
Test: Binding affinity to human recombinant GLP catalytic domain amino acid 951 to 1235 expressed in Escherichia coli BL21 (DE3) by isothermal titration calorimetry assay
Endpoint Label: Kd (nM)

Chem Smiles: COc1cc2c(NC3CCN(CCCCCN)CC3)nc(NCCCN(C)C)nc2cc1OCCCCCN
Assayed Target: Histone-lysine N-methyltransferase EHMT1 (Homo sapiens)
Endpoint Label: Kd
Quantitative Result: 136

* * *

molecular target: Lysine-specific histone demethylase 1A (Homo sapiens, UniProt O60341)
pIC50: −log10 of the molar value.
Endpoint Label: pIC50

Chem Smiles: C/N=C(\NC)NCCCNCCCNCCCN/C(=N/C)NC
Endpoint Label: pIC50
Quantitative Result: 6.30

* * *

Molecular target: UniProt Q96KQ7
Sequence (Q96KQ7 whole entry): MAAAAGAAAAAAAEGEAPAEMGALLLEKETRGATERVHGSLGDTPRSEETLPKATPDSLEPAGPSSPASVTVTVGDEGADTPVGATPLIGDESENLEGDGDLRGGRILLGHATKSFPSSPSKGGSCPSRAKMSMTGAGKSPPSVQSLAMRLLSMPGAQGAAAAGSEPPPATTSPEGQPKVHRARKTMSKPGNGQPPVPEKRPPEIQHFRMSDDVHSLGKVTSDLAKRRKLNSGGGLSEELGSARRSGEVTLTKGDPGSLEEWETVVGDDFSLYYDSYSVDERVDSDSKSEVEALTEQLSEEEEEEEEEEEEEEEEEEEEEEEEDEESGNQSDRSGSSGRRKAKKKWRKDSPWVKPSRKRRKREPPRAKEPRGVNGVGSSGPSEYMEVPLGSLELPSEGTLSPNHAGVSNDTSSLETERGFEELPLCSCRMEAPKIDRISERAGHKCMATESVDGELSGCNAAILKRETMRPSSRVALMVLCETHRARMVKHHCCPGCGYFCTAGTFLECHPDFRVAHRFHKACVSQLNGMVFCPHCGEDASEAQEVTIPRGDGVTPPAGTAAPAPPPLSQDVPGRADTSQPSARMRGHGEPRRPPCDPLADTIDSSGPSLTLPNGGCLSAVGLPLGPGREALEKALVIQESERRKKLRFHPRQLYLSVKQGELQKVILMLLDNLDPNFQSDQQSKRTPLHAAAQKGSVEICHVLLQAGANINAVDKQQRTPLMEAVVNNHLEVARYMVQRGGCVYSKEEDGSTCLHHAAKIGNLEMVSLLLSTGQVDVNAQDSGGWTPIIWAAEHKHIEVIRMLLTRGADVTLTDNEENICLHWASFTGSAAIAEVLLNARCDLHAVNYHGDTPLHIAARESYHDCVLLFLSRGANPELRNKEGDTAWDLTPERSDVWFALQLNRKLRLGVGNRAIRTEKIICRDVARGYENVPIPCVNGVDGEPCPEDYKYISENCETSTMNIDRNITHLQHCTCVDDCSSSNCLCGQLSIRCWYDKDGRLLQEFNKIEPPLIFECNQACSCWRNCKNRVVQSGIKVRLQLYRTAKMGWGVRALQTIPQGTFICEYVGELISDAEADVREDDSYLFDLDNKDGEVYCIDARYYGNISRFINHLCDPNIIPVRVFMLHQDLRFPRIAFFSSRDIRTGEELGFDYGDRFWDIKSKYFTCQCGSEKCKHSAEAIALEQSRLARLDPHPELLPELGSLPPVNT
Assay: Inhibition of human recombinant G9a catalytic domain amino acid 913 to 1193 expressed in Escherichia coli BL21 (DE3) by mass spectrophotometric assay
pIC50: −log10 of the molar value.

Chem Smiles: COc1cc2c(NC3CCN(CCCCCN)CC3)nc(NCCCN(C)C)nc2cc1OCCCCCN
pIC50: 5.89

* * *

Consider compounds characterized by their IC50 with UniProtKB O43463.
Endpoint Label: IC50

Chem Smiles: CS[C@]1(CO)C(=O)N2[C@H]3C(=CC=C[C@@H]3OC(C)=O)C[C@@]2(SC)C(=O)N1C
Result: > 10000 nM
//
Chem Smiles: CN1C(=O)[C@@]23C[C@]4([C@]56C[C@@]78SS[C@@](C)(C(=O)N7[C@H]5Nc5ccccc56)N(C)C8=O)c5ccccc5N[C@@H]4N2C(=O)[C@]1(C)SS3
Result: 530 nM
//
Chem Smiles: CN1C(=O)[C@]23CC4=CC=C[C@H](O)[C@H]4N2C(=O)[C@@]1(CO)SS3
Result: 260 nM

* * *

Measured IC50 accompanies every entry in the list below.
target: Histone-lysine N-methyltransferase SUV39H1 (Homo sapiens, UniProt O43463); assay: Inhibition of SUV39H1 using [3H]-SAM as substrate preincubated for 10 mins before substrate addition measured after 30 mins by scintillation counter
Sequence (O43463 whole entry): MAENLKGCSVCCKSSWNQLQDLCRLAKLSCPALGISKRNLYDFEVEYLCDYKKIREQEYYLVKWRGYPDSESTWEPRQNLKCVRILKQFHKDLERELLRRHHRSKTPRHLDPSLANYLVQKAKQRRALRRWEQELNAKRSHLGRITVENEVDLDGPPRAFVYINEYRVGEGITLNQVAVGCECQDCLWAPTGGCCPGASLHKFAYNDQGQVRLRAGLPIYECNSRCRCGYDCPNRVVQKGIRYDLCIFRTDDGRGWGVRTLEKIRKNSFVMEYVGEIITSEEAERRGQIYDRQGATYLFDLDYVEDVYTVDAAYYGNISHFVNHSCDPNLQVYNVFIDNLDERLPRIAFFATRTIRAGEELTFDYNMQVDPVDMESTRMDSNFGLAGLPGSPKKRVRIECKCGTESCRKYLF

Chem Smiles: N[C@@H](CCCN(CCI)C[C@H]1O[C@@H](n2cnc3c(NCc4ccccc4)ncnc32)[C@H](O)[C@@H]1O)C(=O)O
Assayed Target: Histone-lysine N-methyltransferase SUV39H1 (Homo sapiens, UniProt O43463)
IC50: > 100 µM
//
Chem Smiles: CNc1ncnc2c1ncn2[C@@H]1O[C@H](CN(CCI)CCC[C@H](N)C(=O)O)[C@@H](O)[C@H]1O
Assayed Target: Histone-lysine N-methyltransferase SUV39H1 (Homo sapiens, UniProt O43463)
IC50: > 100 µM

* * *

# reported pIC50; entries follow
Target: Histone-lysine N-methyltransferase EHMT2 (Homo sapiens, UniProt Q96KQ7)
Sequence (Q96KQ7 whole entry): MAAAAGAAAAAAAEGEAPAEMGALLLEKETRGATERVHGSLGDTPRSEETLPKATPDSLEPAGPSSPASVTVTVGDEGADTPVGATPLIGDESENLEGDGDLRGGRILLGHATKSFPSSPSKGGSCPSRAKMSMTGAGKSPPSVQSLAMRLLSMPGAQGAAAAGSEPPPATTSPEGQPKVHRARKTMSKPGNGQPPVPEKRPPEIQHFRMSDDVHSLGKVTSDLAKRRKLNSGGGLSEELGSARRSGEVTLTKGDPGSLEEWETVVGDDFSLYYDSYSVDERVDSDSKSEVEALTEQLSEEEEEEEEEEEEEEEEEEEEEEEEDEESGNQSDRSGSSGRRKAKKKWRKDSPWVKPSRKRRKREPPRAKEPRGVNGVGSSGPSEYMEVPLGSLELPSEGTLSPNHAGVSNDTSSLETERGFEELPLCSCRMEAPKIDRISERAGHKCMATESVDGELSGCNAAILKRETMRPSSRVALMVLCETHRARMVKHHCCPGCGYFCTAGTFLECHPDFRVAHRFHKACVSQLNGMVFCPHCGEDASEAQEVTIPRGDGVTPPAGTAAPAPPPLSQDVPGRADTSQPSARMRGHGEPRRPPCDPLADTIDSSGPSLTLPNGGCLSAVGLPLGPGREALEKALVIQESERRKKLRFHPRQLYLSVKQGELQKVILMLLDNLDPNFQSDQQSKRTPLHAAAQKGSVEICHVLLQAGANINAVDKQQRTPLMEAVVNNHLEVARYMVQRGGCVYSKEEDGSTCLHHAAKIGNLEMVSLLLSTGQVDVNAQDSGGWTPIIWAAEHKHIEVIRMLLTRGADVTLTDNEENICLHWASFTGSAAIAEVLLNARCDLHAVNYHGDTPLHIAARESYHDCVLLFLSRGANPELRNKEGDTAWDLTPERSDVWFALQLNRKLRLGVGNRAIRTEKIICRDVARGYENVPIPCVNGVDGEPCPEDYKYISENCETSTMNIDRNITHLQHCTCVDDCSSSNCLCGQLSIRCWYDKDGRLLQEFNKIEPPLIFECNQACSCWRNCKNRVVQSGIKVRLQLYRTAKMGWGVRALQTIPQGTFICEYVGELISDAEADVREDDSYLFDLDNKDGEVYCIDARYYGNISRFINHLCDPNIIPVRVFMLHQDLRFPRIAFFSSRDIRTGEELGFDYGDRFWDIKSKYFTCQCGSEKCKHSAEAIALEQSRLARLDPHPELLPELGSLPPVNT
Assay: Inhibition of G9a using [3H]-SAM as substrate preincubated for 10 mins before substrate addition measured after 30 mins by scintillation counter
pIC50: −log10 of the molar value.

Chem Smiles: CNc1ncnc2c1ncn2[C@@H]1O[C@H](CN(CCI)CCC[C@H](N)C(=O)O)[C@@H](O)[C@H]1O
pIC50: < 4.00
//
Chem Smiles: N[C@@H](CCCN(CCI)C[C@H]1O[C@@H](n2cnc3c(NCc4ccccc4)ncnc32)[C@H](O)[C@@H]1O)C(=O)O
pIC50: < 4.00
